FYI, the data here is from ChEMBL document CHEMBL1961873.

Target: Mitogen-activated protein kinase kinase kinase kinase 2 (Homo sapiens) (UniProt Q12851);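 also: values given as mean percent inhibition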
Sequence (Q12851 whole entry): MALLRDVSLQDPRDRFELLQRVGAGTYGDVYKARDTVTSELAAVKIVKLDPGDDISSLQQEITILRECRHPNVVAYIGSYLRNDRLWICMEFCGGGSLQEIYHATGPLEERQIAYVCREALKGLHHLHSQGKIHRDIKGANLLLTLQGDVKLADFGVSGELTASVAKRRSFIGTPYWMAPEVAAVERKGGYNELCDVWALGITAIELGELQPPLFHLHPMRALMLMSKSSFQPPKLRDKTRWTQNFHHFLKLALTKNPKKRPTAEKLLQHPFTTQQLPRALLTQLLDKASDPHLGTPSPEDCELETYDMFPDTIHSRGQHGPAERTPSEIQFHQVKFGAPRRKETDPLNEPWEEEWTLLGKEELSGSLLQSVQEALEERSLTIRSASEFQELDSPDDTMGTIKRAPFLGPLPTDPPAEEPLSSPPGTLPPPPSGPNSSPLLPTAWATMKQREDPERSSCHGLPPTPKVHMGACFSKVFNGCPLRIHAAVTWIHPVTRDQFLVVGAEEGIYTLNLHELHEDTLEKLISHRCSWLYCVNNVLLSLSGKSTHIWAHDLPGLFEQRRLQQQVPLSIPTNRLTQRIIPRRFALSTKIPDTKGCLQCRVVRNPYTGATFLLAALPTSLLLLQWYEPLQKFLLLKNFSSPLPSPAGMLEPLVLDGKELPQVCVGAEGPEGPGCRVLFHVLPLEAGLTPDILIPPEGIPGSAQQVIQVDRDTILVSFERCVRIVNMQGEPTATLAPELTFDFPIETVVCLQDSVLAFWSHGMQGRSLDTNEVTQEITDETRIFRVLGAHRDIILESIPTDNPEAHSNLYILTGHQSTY
Settings: at 0.1 µM
Parameter Measured: inhibition (%)
Give just the numeric value; % need not be written.

Study these solved cases before continuing.
Mol: C/C(Nc1ccc(S(N)(=O)=O)cc1)=C1/C(=O)Nc2ccccc21
Parameter Measured: inhibition
Val: 1.58
//
Mol: O=C(Nc1n[nH]c2nc(-c3ccco3)ccc12)C1CC1
Parameter Measured: inhibition
Val: 0.49
//
Mol: CN(C)CCCNc1nccc(-c2c(-c3ccc(F)cc3)nn3cc(C(F)(F)F)ccc23)n1
Parameter Measured: inhibition
Val: 4.09

Q) Report inhibition for `NC(=O)c1ccc(Oc2nccc(-c3c(-c4ccc(F)cc4)ncn3C3CCNCC3)n2)cc1` please.
A) -0.61

Q) Repeat with `CN(c1ccc(NC(=O)Nc2c(Cl)cccc2Cl)cc1)c1ccnc(Nc2cccc(CS(C)(=O)=O)c2)n1`
A) 11.5

Q) Likewise for `c1ccc(Oc2ccc(Nc3ncc(-c4ccccc4)o3)cc2)cc1` ?
A) 1.08
